assay: chemical genetic growth profiling, strain panel (AID 1159580);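 note: tested at 20 µM; growth read once vehicle control cultures reached saturation at 30 °C; 1 = growth at the plate median or of vehicle wells; lower values mean less growth of the strain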; settings: S. cerevisiae deletion strains, growth OD, locus YHR030C, strain SLT2
About 2,000 (36%) of roughly 5,500 compounds were called active. Not shown: some 18% with an inconclusive outcome. Cut-off read from the data, not from the text of the source: active = normalized growth mostly below about 0.91 (no sharp cut-off); inconclusive = no clear call, values can overlap the other calls; inactive = mostly above about 0.92. The list shows a part of the results.
Respond only with the outcome that fits, drawn from label 1 = active, label 0 = inactive

Lookup: How was CC[C@]12CCCN3CCc4c(n(c5ccccc45)C(=O)C1)[C@@H]32 classified in this test?
Found: label 1

* * *

test: chemical genetic growth profiling, strain panel (AID 1159580);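 note: tested at 20 µM; growth read once vehicle control cultures reached saturation at 30 °C; 1 = growth at the plate median or of vehicle wells; lower values mean less growth of the strain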; conditions: S. cerevisiae deletion strains, growth OD, locus YJR066W, strain TOR1 (second series), stronger effect = lower value
Among all 5,500 compounds or so, about 2,000 (36%) were called active. Roughly 18% stayed inconclusive and do not appear here. The list shows a part of the results.
normalized growth values, listed per item
Write the number on its own, no unit after it.

Answered cases to consult:
                                smiles_repr  quantity_measured  recorded_value
0  O=S(=O)(Nc1cc(C(F)(F)F)ccc1F)c1cc(C(F)(F)F)ccc1Cl  normalized growth           0.904
1            NC(=NC(=O)c1ccc(Cl)cc1)c1cccs1  normalized growth           0.904

Field: next compound
Lookup: What normalized growth value was documented for this compound, Clc1ccc(-c2noc(CSC3=NCCN3)n2)cc1 ?
Found: 0.912
